tested on: SK-OV-3 ovarian; experiment: NCI-60 one-dose screen, 48 h (100 = growth as untreated, 0 = no growth, -100 = all killed); details: 10 µM unless noted
This is part of a sample that, as a whole, favours compounds with a hit. Of some 83,000 tested, about 20% had one in any assay.
Provide the reported growth of each item.
Write the value in % as a bare number.

Query: Query (compound): COC(=O)[C@@H](C)C[C@H](Cc1ccccc1)NC(=O)c1csc([C@@H](C[C@H](C(C)C)N(C)C(=O)[C@H](C)NC(=O)[C@H]2CCCN2C)OC(C)=O)n1 ; field requested: growth
Result: 73.2

Query: Would you kindly repeat that for C=CCn1cc(C=C2C(=O)N(C)C(=O)N(C)C2=O)c2ccccc21 ?
Result: 87.4

Query: Would you kindly repeat that for COC(=O)[C@H](Cc1ccccc1)NC(=O)c1csc([C@@H](C[C@H](C(C)C)N(C)C(=O)[C@@H](NC(=O)[C@H]2CCCN2C)C2CC2)OC(C)=O)n1 ?
Result: 52.8

Query: Would you kindly repeat that for CO[C@H](C(=O)O)[C@@H]1Cc2cc3cc(OC4CC(OC5CC(O)C(O)C(C)O5)C(O)C(C)O4)c(C)c(O)c3c(O)c2C(=O)[C@H]1OC1CC(OC2CC(OC3CC(C)(O)C(O)C(C)O3)C(O)C(C)O2)C(O)C(C)O1 (stereo partly drawn) ?
Result: 23.7

Query: Would you kindly repeat that for CC(=O)O[C@H](C[C@H](C(C)C)N(C)C(=O)[C@@H](NC(=O)[C@H]1CCCCN1C)C(C)(C)C)c1nc(C(=O)N[C@@H](Cc2ccccc2)C[C@H](C)C(=O)O)cs1 ?
Result: 28.6

Query: Would you kindly repeat that for COc1ccc(/C=C\c2cc(OC)c(OC)c(OC)c2)cc1OCC(=O)Nc1nc2ccc(C(F)(F)F)cc2s1 ?
Result: 10.8

Query: Would you kindly repeat that for COC(=O)[C@@H](C)C[C@H](Cc1ccccc1)NC(=O)c1nc([C@@H](C[C@H](C(C)C)N(C)C(=O)[C@@H](NC(=O)[C@H]2CCCCN2C)C(C)C)OC(C)=O)sc1C(C)C ?
Result: 26.8

Query: Would you kindly repeat that for CC(C)(NC(=O)O[C@@H]1CN2CCC1CC2)c1csc(-c2ccc(F)cc2)n1 ?
Result: 99.6

Query: Would you kindly repeat that for Nc1ncnc2n[nH]nc12 ?
Result: 13.1

Query: Would you kindly repeat that for O=C1C(N2CC2)=C(N2CC2)C(=O)C(N2CC2)=C1N1CC1 ?
Result: -30.6

Query: Would you kindly repeat that for O=C(c1ccccc1O)c1[nH]c(Cl)c(Cl)c1-n1c(C(=O)c2ccccc2O)cc(Cl)c1Cl ?
Result: -5.75

Query: Would you kindly repeat that for CC12CC(=O)C3(SC#N)C(CCC4=CC(=O)CCC43C)C1CCC2=O (stereo not drawn) ?
Result: 109

Query: Would you kindly repeat that for CC[C@H](C)[C@H](NC(=O)[C@H]1CCCCN1C)C(=O)N(C)[C@H](CCc1nc(C(=O)N[C@@H](Cc2ccccc2)C[C@H](C)C(=O)OC)cs1)C(C)C ?
Result: 8.81

====

Provide the reported growth of each item.
system: MDA-MB-435 melanoma; assay: NCI-60 one-dose screen, 48 h (100 = growth as untreated, 0 = no growth, -100 = all killed); details: 10 µM unless noted
Compounds without any hit were thinned out: in the full panel of roughly 83,000, 20% have a hit. The source made the active and inactive calls. Rule for the calls: active = growth percent below 10; inactive = the rest.

Query: Query (compound): O=NN1CCCc2cccc(O)c21 ; field requested: growth
Result: 52.1% (inactive)

Query: Would you kindly repeat that for C[C@]12CCc3sc(-c4cccc(F)c4)nc3C1=CC[C@@H]1[C@@H]2CC[C@]2(C)C(=O)CC[C@@H]12 ?
Result: 49.2% (inactive)

Query: Would you kindly repeat that for O=C(Nc1ccc([N+](=O)[O-])cc1)C(Cl)(Cl)Cl ?
Result: 104% (inactive)

Query: Would you kindly repeat that for O=C(CC1(O)C(=O)N(Cc2ccccc2)c2ccc(Br)cc21)c1ccc(C(=O)NCC2CCC3(CC2)OOC2(CCCCC2)OO3)cc1 (stereo not drawn) ?
Result: 4.94% (active)

Query: Would you kindly repeat that for CN1CC(=O)N(O)C1(C)c1cccnc1 (stereo not drawn) ?
Result: 97.4% (inactive)

Query: Would you kindly repeat that for CC(=O)O[C@H](C[C@H](C(C)C)N(C)C(=O)[C@@H](NC(=O)[C@H]1CCCN1C)C(C)C)c1nc(C(=O)N[C@@H](Cc2ccccc2)C[C@H](C)C(=O)O)c(C)s1 ?
Result: -5.47% (active)

Query: Would you kindly repeat that for CC[C@]12C=CCN3CC[C@@]4(c5ccc(OC)cc5N(C)[C@H]4[C@@](O)(C(=O)OC)[C@@H]1OC(=O)CCCC[P+](c1ccccc1)(c1ccccc1)c1ccccc1)[C@@H]32 ?
Result: -19.7% (active)

Query: Would you kindly repeat that for c1ccc(COc2ccc3[nH]cc(CCN(Cc4ccccc4)Cc4ccccc4)c3c2)cc1 ?
Result: 102% (inactive)

Query: Would you kindly repeat that for COC(=O)[C@@H](C)C[C@H](Cc1ccccc1)NC(=O)c1nc([C@@H](C[C@H](C(C)C)N(C)C(=O)[C@@H](NC(=O)[C@H]2CCCCN2C)C(C)C)OC(C)=O)sc1C(C)C ?
Result: -46.8% (active)

Query: Would you kindly repeat that for CCCCCCCCCCCCCCCCCCOc1ccccc1COP(=O)(O)OOCC[N+](C)(C)C ?
Result: 7.62% (active)

Query: Would you kindly repeat that for CC[C@H](C)[C@H](NC(=O)[C@H]1CCCCN1C)C(=O)N(C)[C@H](C[C@@H](O)c1nc(C(=O)N[C@@H](Cc2ccccc2)C[C@H](C)C(=O)O)cs1)C(C)C ?
Result: 18.9% (inactive)

Query: Would you kindly repeat that for COC(=O)C1OC(Oc2ccc(N(CCCl)CCCl)cc2)C(OC(C)=O)C(OC(C)=O)C1OC(C)=O (stereo not drawn) ?
Result: 93.2% (inactive)

Query: Would you kindly repeat that for O=P(N1CC1)(N1CC1)N1CCc2ccccc21 ?
Result: 111% (inactive)

Query: Would you kindly repeat that for Cn1cc(-c2csc(-c3cn(CCCCN4CCCCC4)c4ccccc34)n2)c2cccnc21 ?
Result: -79.6% (active)

Query: Would you kindly repeat that for CC(=O)OC[C@]1(C)C=C2C(=O)[C@](C)(O)C3(CC3)C(C)=C2[C@H]1OC(=O)N(C)CCN(C)C(=O)OC(C)(C)C ?
Result: -47% (active)

Query: Would you kindly repeat that for C[C@@]12CC[C@@H](O)C[C@@H]1CC[C@H]1[C@H]2CC[C@@]2(C)[C@H](c3ccc(=O)oc3)CC[C@@]12O ?
Result: -81.9% (active)

Query: Would you kindly repeat that for O=[N+]([O-])c1ccc([Se]C2CCCCC2Cl)c([N+](=O)[O-])c1 (stereo not drawn) ?
Result: 55.3% (inactive)

Query: Would you kindly repeat that for COc1ccc(/C=C\c2cc(OC)c(OC)c(OC)c2)cc1OCC(=O)Nc1nc2ccc(F)cc2s1 ?
Result: 15.5% (inactive)

Where do these numbers come from? They come from PubChem BioAssay (NCI).
